Taken from patent US20250324971A1.

Listed here: items and their measured Post-Emergence Test AMAPA percentage damage (five-point scale).
tested on: Amaranthus palmeri (AMAPA); assay: Post-Emergence Test (herbicidal, glasshouse pots); assay type: in vivo; settings: rate 250 g/ha; evaluated after 13 days
experimental readout: Post-Emergence Test AMAPA percentage damage (five-point scale)

1) CCn1c(Oc2ccn(C3CC3)n2)cc(=O)c(C(=O)O)c1-c1ccc(Cl)c(Cl)c1 = 3 (3=41-60%)
2) CCn1c(Oc2ccc(F)c(F)c2)cc(=O)c(C(=O)O)c1-c1ccc(C#N)c(Cl)c1 = 3 (3=41-60%)
3) CCn1c(Oc2cc(Cl)n(C)n2)cc(=O)c(C(=O)O)c1-c1ccc(Cl)c(Cl)c1 = 1 (1=0-20%)
